Exercise: for every item that follows, state its recorded fluorescence intensity.
Study System: T1, Rhesus monkey glycophorin A on Rhesus monkey red blood cells (Rhesus monkey, UniProt A0A1D5Q349 20-150)
T1 construct: whole, on cells; also called Rhesus RBC; monkey GPA
T1 sequence: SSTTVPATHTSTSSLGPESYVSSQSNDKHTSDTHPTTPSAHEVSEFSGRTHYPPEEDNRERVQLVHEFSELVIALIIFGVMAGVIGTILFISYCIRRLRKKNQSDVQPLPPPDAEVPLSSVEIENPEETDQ
Assay Comment: FACS, RBC Rh03
Reply: number alone, nothing else.

Report fluorescence intensity for Hu6C12-24 (antibody, V domains shown, IgG format; VH.1g + Vk.1b) VH: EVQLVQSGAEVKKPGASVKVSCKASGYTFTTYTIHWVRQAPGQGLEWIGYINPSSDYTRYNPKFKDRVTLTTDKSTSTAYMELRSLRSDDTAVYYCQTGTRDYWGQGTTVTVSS VL: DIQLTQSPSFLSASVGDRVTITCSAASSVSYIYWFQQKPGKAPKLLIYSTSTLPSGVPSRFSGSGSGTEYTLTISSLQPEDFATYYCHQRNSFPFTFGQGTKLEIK please.
2370

Item: Hu6C12-15 (antibody, V domains shown, IgG format; VH.1f + Vk.1a) VH: EVQLVQSGAEVKKPGASVKVSCKASGYTFTTYTIHWVRQAPGQGLEWMGYINPSSDYTRYNPKFKDRVTLTTDTSTSTAYMELRSLRSDDTAVYYCQTGTRDYWGQGTTVTVSS VL: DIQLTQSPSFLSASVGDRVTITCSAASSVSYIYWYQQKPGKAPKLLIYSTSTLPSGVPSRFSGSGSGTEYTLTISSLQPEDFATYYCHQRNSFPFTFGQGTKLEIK
1490

Item: Hu6C12-13 (antibody, V domains shown, IgG format; VH.1d + Vk.1a) VH: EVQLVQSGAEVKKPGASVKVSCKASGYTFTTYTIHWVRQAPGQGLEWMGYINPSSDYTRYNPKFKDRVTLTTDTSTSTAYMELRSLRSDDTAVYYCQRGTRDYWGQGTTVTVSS VL: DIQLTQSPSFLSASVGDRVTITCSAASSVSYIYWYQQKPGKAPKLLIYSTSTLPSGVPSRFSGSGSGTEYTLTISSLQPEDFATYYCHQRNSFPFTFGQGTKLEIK
1270

Item: Hu6C12-4 (antibody, V domains shown, IgG format; VH.1d + Vk.1) VH: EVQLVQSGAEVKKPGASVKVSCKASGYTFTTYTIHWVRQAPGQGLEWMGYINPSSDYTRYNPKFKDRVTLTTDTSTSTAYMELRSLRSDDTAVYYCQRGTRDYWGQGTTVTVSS VL: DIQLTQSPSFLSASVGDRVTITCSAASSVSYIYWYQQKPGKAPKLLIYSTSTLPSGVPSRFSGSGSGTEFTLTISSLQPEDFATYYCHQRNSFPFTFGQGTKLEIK
1340

Item: Hu6C12-10 (antibody, V domains shown, IgG format; VH.1a + Vk.1a) VH: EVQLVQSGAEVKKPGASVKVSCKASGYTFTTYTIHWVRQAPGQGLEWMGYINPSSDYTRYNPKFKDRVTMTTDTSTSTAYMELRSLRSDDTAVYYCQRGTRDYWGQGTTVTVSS VL: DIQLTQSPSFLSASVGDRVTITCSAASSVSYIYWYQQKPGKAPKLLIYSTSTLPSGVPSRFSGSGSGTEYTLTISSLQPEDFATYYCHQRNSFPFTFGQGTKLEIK
1310

Item: 6C12B8/H8 (antibody, V domains shown, mouse IgG1/k from hybridoma; also called 6C12 parental; TPP-3422) VH: RVQLQQSGAELARPGASVKMSCKASGYTFTTYTIHWVKQKTGQGLEWIGYINPSSDYTRYNPKFKDKATLTTDKSSSTAYMKLNSLASDDSAVYYCQTGTRDYWGQGTTLTVSS VL: QIVLTQSPPIMSASPGEKVTMTCSAASSVSYIYWFQQKPGTSPKLWIYSTSTLPSGVPTRFSGSGSGTSYSLTISRMEAEDAATYYCHQRNSFPFTFGSGTKLEIR
3180

Item: Hu6C12-1 (antibody, V domains shown, IgG format; VH.1a + Vk.1) VH: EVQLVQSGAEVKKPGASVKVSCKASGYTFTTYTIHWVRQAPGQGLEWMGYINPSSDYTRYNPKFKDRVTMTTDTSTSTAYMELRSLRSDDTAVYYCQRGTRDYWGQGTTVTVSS VL: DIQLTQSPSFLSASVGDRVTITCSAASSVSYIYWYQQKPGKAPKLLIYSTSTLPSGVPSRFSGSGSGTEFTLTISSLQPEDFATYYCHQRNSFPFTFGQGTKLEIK
1140

Item: Hu6C12-22 (antibody, V domains shown, IgG format; VH.1e + Vk.1b) VH: EVQLVQSGAEVKKPGASVKVSCKASGYTFTTYTIHWVRQAPGQGLEWMGYINPSSDYTRYNPKFKDRVTLTTDTSTSTAYMELRSLRSDDTAVYYCATGTRDYWGQGTTVTVSS VL: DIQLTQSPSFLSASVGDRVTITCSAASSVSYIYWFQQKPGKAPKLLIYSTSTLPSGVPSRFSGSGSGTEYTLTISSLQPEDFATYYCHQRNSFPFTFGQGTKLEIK
1450

Item: Hu6C12-20 (antibody, V domains shown, IgG format; VH.1c + Vk.1b) VH: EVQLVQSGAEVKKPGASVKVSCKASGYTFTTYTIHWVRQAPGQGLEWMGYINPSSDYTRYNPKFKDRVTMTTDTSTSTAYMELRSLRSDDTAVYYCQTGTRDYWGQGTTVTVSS VL: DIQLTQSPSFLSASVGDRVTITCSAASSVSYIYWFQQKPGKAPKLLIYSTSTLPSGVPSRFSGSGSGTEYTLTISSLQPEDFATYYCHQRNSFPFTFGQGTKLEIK
1550

Item: Hu6C12-19 (antibody, V domains shown, IgG format; VH.1b + Vk.1b) VH: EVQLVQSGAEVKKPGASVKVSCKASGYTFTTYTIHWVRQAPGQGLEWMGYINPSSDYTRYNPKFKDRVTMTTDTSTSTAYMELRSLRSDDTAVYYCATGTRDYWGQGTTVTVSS VL: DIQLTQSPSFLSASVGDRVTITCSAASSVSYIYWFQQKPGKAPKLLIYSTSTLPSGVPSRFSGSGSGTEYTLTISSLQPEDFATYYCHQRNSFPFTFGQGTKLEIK
1520
